All figures here come from the NIST ThermoML archive (doi:10.1021/je0499364).

# test: Molar enthalpy of transition or fusion
# assay_context: Crystal
Note to self: use condition met only for Molar enthalpy of transition or fusion readings below 10 kcal/mol; a reading exactly at 10 kcal/mol still gets condition not met.

compound: CCCCCCCCCCC(=O)OC [methyl undecanoate]
category: condition met
--
compound: CCCCCCCCCCCCCCCCCCC(=O)OC [methyl nonadecanoate]
category: condition not met
--
compound: CCCCCCCCCCCCCCCCCC(=O)OC [methyl octadecanoate]
category: condition not met
--
compound: CCCCCCCCCC(=O)OC [methyl decanoate]
category: condition met
--
compound: CCCCCCCCC(=O)OC [methyl nonanoate]
category: condition met
--
compound: CCCCCCCCCCCCCCCCC(=O)OC [methyl heptadecanoate]
category: condition not met
--
compound: CCCCCCCCCCCCCCCCCCCC(=O)OC [methyl eicosanoate]
category: condition not met
--
compound: CCCCCCCCCCCC(=O)OC [methyl dodecanoate]
category: condition not met
--
compound: CCCCCCCCCCCCCC(=O)OC [methyl tetradecanoate]
category: condition not met
--
compound: CCCCCCCCCCCCCCCC(=O)OC [methyl hexadecanoate]
category: condition not met
--
compound: CCCCCCCCCCCCC(=O)OC [methyl tridecanoate]
category: condition not met
--
compound: CCCCCCCCCCCCCCC(=O)OC [methyl pentadecanoate]
category: condition not met
